# assay target: T1, EsCas13d, nuclease-dead (Eubacterium siraeum, UniProt B0MS50, R295A;H300A;R849A;H854A)
# T1 sequence: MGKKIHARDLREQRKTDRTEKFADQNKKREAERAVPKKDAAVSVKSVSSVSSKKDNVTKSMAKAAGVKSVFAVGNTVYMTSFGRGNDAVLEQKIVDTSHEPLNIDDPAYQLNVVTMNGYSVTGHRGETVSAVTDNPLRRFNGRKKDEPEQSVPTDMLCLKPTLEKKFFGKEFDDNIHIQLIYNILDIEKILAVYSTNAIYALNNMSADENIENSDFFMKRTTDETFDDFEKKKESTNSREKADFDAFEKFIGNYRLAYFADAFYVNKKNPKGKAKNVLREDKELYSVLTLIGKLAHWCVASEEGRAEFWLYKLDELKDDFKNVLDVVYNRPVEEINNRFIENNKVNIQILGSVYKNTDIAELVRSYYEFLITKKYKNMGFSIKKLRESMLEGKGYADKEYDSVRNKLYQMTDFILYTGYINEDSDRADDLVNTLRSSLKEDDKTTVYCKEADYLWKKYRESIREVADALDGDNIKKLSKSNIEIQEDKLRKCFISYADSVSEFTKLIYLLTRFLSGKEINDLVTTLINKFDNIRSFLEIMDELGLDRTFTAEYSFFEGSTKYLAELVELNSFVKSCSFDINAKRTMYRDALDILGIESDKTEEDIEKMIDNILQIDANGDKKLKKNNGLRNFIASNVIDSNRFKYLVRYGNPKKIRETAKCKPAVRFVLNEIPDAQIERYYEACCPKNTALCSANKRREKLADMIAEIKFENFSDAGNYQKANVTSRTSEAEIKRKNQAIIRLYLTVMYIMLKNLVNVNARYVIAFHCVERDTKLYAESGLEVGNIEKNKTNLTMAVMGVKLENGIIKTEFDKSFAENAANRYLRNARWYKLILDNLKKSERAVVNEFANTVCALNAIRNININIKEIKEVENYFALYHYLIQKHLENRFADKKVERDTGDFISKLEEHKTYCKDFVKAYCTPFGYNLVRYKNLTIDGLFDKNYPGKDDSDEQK
# procedure summary: crRNA (strand 1, pre-loaded); Mg2+; 40 mM Tris-HCl pH 7.5, 150 mM NaCl, 6 mM MgCl2, 1 mM DTT, 0.1% Tween-20, 0.2 mg/ml BSA; 25 C; 10 min per concentration, then washed
# assay context: tags: His6-TwinStrep-SUMO cleaved; N-terminal SNAP kept (SNAP-Surface 488); label: 3' end held by stalled T7 RNA polymerase
measurement label: pKd
In textbook form, pKd equals minus log to base ten of the concentration in mol/L.

Example results:
target 1 insG 3' of 10,insG 3' of 3 (mixed) RNA 1: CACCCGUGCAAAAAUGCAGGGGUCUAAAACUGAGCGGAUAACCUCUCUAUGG RNA 2: GGGAAUGGAUCCACAUCUACGAAUUCGUACCAUAGAGAGGUUGAUCCGCUGCACCGAGAUCGGAAGAGCACACGU ... 7.55
target 3 complement block 4-9 (mixed) RNA 1: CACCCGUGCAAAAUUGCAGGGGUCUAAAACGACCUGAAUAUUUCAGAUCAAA RNA 2: GGGAAUGGAUCCACAUCUACGAAUUCGUUUUUGAUCUGAAAUUAAGUCGUCUGCAGAUCGGAAGAGCACACGU ... 7.17
target 1 U3G,C4G (mixed) RNA 1: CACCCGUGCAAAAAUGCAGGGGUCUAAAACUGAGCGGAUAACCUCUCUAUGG RNA 2: GGGAAUGGAUCCACAUCUACGAAUUCGUACCAUAGAGAGGUUAUCCGGGCACCGAGAUCGGAAGAGCACACGU ... 8.28

Kindly review the next binder as well.
Problem: Report pKd for target 2 MT 5'PFS GGG 3'PFS CCA (mixed) RNA 1: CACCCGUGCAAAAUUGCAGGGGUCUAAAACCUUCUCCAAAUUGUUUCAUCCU RNA 2: GGGAAUGGAUCCACAUCUACGAAUUCGGGAGGAUGAAACAAUUUGGAGAAGCCAAGAUCGGAAGAGCACACGU please.
Solution: 7.60
